Sourced from ChEMBL document CHEMBL4800723

# tgt: Kappa-type opioid receptor (Homo sapiens)
# Sequence (P41145 whole entry): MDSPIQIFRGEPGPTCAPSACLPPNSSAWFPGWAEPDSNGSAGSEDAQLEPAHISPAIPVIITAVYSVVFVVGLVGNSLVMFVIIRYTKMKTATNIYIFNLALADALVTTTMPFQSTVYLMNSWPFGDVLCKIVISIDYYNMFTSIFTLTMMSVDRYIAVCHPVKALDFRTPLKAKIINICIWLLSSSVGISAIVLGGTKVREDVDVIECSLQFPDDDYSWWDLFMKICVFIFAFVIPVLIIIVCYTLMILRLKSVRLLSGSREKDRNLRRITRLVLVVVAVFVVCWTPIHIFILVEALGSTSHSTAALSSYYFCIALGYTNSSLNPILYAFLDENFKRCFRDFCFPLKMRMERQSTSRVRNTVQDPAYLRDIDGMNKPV
# experiment-summary: GPCRScan assay: inhibition of KOR
# Design: radioligand conc. used [nm] 0.6 – 1.2, parental cells stable HEK
# applied-conditions: read-out: Ki
pKi: −log10 of the molar value.

- compound: "CC[C@H](CC(=O)O)n1c(=O)c2ncccc2n(Cc2cn(C)c3cc(C)cc(C)c23)c1=O [BI-1942]"
  pKi: 5.31

* * *

# tgt: hERG (KCNH2) (Homo sapiens, UniProt Q12809)
# Sequence (Q12809 whole entry): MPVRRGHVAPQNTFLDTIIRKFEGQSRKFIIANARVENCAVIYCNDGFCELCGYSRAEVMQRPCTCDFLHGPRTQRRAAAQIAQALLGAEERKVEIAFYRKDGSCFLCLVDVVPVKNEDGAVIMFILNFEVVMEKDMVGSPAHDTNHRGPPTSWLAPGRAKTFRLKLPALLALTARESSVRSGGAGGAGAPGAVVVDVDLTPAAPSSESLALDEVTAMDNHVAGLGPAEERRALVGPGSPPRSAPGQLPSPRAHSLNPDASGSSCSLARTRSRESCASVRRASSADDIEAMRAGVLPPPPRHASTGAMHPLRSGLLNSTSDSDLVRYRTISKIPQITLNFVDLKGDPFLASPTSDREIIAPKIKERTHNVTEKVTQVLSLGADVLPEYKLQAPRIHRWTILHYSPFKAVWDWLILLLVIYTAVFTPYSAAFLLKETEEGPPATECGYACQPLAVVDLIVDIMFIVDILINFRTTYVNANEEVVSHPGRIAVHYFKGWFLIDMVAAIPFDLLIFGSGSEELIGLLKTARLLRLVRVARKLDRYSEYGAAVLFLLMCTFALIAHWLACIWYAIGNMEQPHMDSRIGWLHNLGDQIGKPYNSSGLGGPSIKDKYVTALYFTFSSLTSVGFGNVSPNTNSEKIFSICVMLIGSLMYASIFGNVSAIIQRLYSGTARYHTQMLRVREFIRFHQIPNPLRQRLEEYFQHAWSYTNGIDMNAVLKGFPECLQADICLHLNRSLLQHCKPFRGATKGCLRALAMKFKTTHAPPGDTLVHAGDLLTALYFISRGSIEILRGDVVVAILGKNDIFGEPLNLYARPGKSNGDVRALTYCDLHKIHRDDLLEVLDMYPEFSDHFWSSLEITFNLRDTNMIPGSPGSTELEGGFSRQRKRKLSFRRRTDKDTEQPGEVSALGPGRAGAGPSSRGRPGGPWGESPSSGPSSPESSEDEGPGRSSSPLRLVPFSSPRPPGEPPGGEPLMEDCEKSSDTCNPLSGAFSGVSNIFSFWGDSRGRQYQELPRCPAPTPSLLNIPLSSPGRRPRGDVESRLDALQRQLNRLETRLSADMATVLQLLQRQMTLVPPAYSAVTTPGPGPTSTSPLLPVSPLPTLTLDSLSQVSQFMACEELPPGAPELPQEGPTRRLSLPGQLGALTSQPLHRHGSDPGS
# experiment-summary: HERG_DOFETILIDE Eurofins SafetyScreen44 (BI)
# Design: mode of action inhibitor
# applied-conditions: probe [3H] Dofetilide, compound concentration 10 uM, read-out: % Ctrl

- compound: "CC[C@H](CC(=O)O)n1c(=O)c2ncccc2n(Cc2cn(C)c3cc(C)cc(C)c23)c1=O [BI-1942]"
  activity at 10 µM: "105% (not active)"

* * *

# tgt: MAO-A (amine oxidase [flavin-containing] A) (Rattus norvegicus, UniProt P21396)
# Sequence (P21396 whole entry): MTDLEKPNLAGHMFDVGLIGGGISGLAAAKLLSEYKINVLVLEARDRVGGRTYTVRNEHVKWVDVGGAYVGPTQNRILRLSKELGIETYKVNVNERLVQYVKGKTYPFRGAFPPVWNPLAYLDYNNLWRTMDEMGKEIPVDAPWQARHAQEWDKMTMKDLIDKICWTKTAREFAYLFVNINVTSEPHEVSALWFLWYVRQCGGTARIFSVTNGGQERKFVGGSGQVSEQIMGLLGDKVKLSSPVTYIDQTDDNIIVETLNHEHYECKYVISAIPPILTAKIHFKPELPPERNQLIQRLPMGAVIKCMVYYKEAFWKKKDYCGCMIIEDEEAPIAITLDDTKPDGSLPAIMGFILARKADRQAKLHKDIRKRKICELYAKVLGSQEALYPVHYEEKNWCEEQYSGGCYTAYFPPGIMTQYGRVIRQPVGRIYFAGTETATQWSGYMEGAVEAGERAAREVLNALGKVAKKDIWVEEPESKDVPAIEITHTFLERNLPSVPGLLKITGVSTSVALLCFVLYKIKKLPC
# experiment-summary: MAO-A_ANTAG Eurofins SafetyScreen44 (BI)
# Set-up: mode of action antagonist; scale not given: the % may be the effect or the level left
# applied-conditions: compound concentration 10 uM, read-out: % Ctrl

- compound: "CC[C@H](CC(=O)O)n1c(=O)c2ncccc2n(Cc2cn(C)c3cc(C)cc(C)c23)c1=O"
  activity at 10 µM: "86% (not active)"

* * *

# tgt: L-type calcium channel (dihydropyridine site), Cav1.2 alpha-1C (Rattus norvegicus, UniProt P22002)
# Sequence (P22002 whole entry): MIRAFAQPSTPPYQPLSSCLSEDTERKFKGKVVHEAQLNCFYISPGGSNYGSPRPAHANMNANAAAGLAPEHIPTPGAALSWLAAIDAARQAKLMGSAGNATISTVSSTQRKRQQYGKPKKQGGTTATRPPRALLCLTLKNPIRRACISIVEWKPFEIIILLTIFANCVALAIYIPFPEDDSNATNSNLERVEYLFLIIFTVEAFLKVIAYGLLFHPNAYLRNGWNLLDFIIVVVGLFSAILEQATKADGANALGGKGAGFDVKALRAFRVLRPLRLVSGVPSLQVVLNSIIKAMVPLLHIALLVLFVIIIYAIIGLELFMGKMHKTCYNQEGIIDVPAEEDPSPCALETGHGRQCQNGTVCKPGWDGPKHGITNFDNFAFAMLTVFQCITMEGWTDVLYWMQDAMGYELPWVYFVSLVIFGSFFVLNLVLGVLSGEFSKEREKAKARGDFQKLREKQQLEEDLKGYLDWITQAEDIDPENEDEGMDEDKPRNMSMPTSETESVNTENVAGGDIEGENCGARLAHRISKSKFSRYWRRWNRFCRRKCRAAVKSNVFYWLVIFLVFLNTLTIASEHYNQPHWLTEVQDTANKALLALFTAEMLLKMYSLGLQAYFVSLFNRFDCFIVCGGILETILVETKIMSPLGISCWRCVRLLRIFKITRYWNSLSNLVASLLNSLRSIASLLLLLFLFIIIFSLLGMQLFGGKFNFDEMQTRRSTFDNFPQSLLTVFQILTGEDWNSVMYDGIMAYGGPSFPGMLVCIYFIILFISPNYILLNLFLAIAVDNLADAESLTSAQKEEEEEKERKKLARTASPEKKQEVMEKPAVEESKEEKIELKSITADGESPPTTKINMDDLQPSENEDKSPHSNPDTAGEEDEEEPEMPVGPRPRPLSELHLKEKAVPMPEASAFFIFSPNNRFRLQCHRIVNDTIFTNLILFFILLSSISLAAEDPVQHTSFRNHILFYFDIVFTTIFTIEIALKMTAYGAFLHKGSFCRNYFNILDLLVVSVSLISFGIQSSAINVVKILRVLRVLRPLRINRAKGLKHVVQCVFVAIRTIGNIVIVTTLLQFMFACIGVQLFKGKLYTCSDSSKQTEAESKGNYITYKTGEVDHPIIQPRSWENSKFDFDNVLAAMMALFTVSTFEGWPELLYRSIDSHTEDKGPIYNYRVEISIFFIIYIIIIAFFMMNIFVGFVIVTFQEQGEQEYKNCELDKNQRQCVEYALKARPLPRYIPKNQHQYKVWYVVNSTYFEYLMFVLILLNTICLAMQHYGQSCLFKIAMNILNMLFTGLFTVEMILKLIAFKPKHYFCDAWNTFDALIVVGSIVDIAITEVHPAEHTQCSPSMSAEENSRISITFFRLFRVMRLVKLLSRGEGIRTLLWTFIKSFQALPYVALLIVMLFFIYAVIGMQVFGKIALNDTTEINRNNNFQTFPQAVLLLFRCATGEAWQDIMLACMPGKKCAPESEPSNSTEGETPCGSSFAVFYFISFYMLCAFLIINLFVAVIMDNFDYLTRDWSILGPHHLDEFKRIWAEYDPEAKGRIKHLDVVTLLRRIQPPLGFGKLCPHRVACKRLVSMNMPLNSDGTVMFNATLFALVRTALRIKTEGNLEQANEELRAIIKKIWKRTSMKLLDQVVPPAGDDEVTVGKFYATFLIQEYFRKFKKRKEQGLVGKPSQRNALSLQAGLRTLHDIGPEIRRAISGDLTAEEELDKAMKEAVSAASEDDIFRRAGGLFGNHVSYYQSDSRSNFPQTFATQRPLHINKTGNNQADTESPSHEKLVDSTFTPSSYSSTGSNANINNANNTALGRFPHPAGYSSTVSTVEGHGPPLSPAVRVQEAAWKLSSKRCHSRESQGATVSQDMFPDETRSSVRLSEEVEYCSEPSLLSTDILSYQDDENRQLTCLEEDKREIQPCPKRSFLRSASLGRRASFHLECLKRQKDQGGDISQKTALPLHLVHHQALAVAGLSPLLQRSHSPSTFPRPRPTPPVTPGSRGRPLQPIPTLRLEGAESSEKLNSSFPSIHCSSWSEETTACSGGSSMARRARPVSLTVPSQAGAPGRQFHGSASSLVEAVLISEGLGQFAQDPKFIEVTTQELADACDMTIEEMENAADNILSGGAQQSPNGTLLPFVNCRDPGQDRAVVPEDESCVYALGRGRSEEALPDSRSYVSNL
# experiment-summary: CA+/DHPSI/R Eurofins SafetyScreen44 (BI)
# Parameters: mode of action inhibitor
# applied-conditions: rat brain, probe [3H](+)PN200-110, compound concentration 10 uM, read-out: % Ctrl
reported-property: activity at 10 µM

- compound: "CC[C@H](CC(=O)O)n1c(=O)c2ncccc2n(Cc2cn(C)c3cc(C)cc(C)c23)c1=O"
  readout-value: "108% (not active)"
